TEST_NAME: chemical genetic growth profiling, strain panel (AID 1159580);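 also: tested at 20 µM; growth read once vehicle control cultures reached saturation at 30 °C; 1 = growth at the plate median or of vehicle wells; lower values mean less growth of the strain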
SETUP_CONDITIONS: S. cerevisiae deletion strains, growth OD, locus YOR329C, strain SCD5, stronger effect = lower value
About 2,000 (36%) of roughly 5,500 compounds were called active. Not shown: some 18% with an inconclusive outcome. The list shows a part of the results.
Overview of recorded normalized growth for various molecules

MOLECULE	normalized growth
CCCc1c(C(=O)NC2Cc3ccccc3C2)cnn1-c1ccccc1	0.992
O=S(=O)(N/N=C\c1ccc(Cl)cc1)c1ccc(-c2ccccn2)s1	0.984
CCOC(=O)/C(=N/Nc1c(Cl)cccc1Cl)c1csc(N)n1	0.975
FC(F)(F)c1cccc(NC(=S)Nc2ccccc2)c1	0.989
O=C(NCc1ccncc1)c1ccc(-n2cccn2)cc1	0.986
Cn1c(CSCCOc2ccccc2)nnc1SCc1ccc(Cl)cc1Cl	0.986
O=C1CSC(c2cccnc2)N1c1ccc(Cl)cc1Cl (stereo not drawn)	0.99
N#CC(C#N)=C/C=C(/Sc1ccc(F)c(Cl)c1)c1ccc(Cl)cc1	0.956
N#CC(C#N)=C/C=C(/Sc1nc2ccccc2s1)c1ccc(Br)cc1	0.164
O=c1c(Cl)c(-n2cccn2)cnn1-c1ccc(Cl)cc1Cl	0.943
O=[N+]([O-])/C=C/c1ccsc1	0.0876
Cc1cccc(Cl)c1/C=N\NC(N)=S	0.927
CCCc1c(C(=O)NNc2cccc(Cl)c2)cnn1-c1ccccc1	0.981
CC(=O)Nc1ccc([N+](=O)[O-])cc1[N+](=O)[O-]	0.929
Cc1cc(Cl)ccc1NC(=S)NNC(=S)Nc1ccc(F)cc1	0.972
O=[N+]([O-])c1cc(Br)cnc1Sc1nnc(SCC2CC2)s1	0.962
Fc1cccc(Cl)c1CSc1nncn1-c1ccc(OCc2ccccc2)cc1	1
O=[N+]([O-])/C=C/c1ccc(F)cc1	0.0906
COC(=O)C1=C(C)NC(C)=C(C(=O)OC)C1c1ccc(Cl)cc1Cl	0.984
O=C(NC(=O)c1c(F)cccc1Cl)OCc1ccc(Cl)cc1Cl	0.978
Cc1c(C)c(C)c(CSC(N)=Nc2ccc(F)cc2)c(C)c1C	0.996
CCOc1ccc(/C=C(\C)[N+](=O)[O-])cc1OC	0.965
CCOC(=O)C1=C(N)OC2=C(C(=O)CC(C)(C)C2)C1c1ccc(Cl)cc1Cl (stereo not drawn)	0.976
O=C(c1ccc2ccccc2c1)N1CCN(c2ccnc3cc(Cl)ccc23)CC1	0.995
O=C(NCCSCc1cccc(C(F)(F)F)c1)Nc1cccc(C(F)(F)F)c1	1
COc1ccc(C(=O)CSC2=NCCc3ccccc32)cc1	0.982
OC(CNCc1ccc(Cl)cc1)CO/N=C\C1=C(Cl)c2cc(Cl)ccc2OC1 (stereo not drawn)	0.977
CSc1ccc(/C=C(\C)[N+](=O)[O-])cc1	0.0819
O=[N+]([O-])c1ccccc1CS(=O)(=O)c1nc2ccccc2s1	0.896
C=CCOc1ccc(/C=C/[N+](=O)[O-])cc1	0.0843
CC(=O)Nc1ccc(/C=C/[N+](=O)[O-])cc1	0.985
N#CCC(=O)NNC(=S)Nc1ccc(Cl)c(Cl)c1	0.985
Fc1cccc(F)c1NC(=S)Nc1cc(C(F)(F)F)cc(C(F)(F)F)c1	0.986
